Where do these numbers come from? They come from PubChem BioAssay (NCATS).

# assay info: S16 Schwann cell PMP22 intronic element firefly luciferase assay (AID 624032); note: nearly all actives have a fitted effect of over 30% in size
# run parameters: S16 rat Schwann cells, PMP22 element FLuc, 24 h; series mostly up to 57.5 µM
Results filed as inconclusive are left out. Activity calls are given as the source filed them. Calls come from the whole dose curve; as a rule, active = well fitted inhibition curve with a large enough effect; inconclusive = small, poorly fitted or top-dose-only effect; inactive = no such curve, though single readings can be large or run the other way.
Outcome codes: 1 (active), -1 (inactive)

compound	assigned label
OC1C(O)C(O)C(O)C(O)C1O (centres undefined)	-1
O=C(O)P(=O)(O)O	-1
CC(=O)O[C@H]1C[C@@H]2CC[C@@H]3[C@H](CC[C@@]4(C)[C@H]3C[C@H]([N+]3(C)CCCCC3)[C@@H]4OC(C)=O)[C@@]2(C)C[C@@H]1N1CCCCC1	-1
Nc1ccc(S(=O)(=O)Nc2cnc3ccccc3n2)cc1	-1
CCN(CC)CCOC(=O)C1(c2ccccc2)CCCC1	-1
O=C(CCCN1CC=C(n2c(=O)[nH]c3ccccc32)CC1)c1ccc(F)cc1	-1
O=C(CN1CCN(Cc2ccc3c(c2)OCO3)CC1)N1c2ccccc2Sc2ccccc21	1
CN(C)C(=O)Nc1ccc(Cl)c(Cl)c1	-1
Nc1ccc(C(=O)NCC(=O)O)cc1	-1
CCCCC(CC)COC(=O)/C=C/c1ccc(OC)cc1 (centres undefined)	-1
CCc1oc2ccccc2c1C(=O)c1cc(Br)c(O)c(Br)c1	-1
C#C[C@]1(O)CC[C@H]2[C@@H]3CCC4=CC(=O)CC[C@@H]4[C@H]3CC[C@@]21CC	1
Cc1cc2c(OCC(CNC(C)(C)C)OC(=O)c3ccccc3)cccc2[nH]1 (centres undefined)	1
O=C(O)C(Cc1cc(I)c(O)c(I)c1)c1ccccc1 (centres undefined)	-1
CCCCCCCCCCCCCC[N+](C)(C)Cc1ccccc1	1
CN(C)CCC[C@@]1(c2ccc(F)cc2)OCc2cc(C#N)ccc21	-1
Cc1cc(CC(=O)O)c(C)n1-c1ccc(Cl)cc1	-1
Cc1cc(C)cc(OCC2CNC(=O)O2)c1 (centres undefined)	-1
O=C(NCCc1c[nH]c2ccccc12)c1cccnc1	-1
Cc1nc(-c2ccc(Cl)cc2)oc1COC(C)(C)C(=O)O	-1
OC(C#CCN1CCCC1)(c1ccccc1)c1ccccc1	-1
CCN(CC)CCOc1ccccc1C(=O)CCc1ccccc1	-1
O=C1C(O)=C(O)C(=O)C(O)=C1O	-1
COP(=O)(OC)OC(c1ccc(Cl)cc1)P(=O)(OC)OC (centres undefined)	-1

----------
# Tested on: MCC-13
# assay info: qHTS assay to identify novel small-molecules to repurpose for Merkel cell carcinoma treatment (AID 1296009); note: nearly all actives have a fitted effect of over 60% in size
# run parameters: MCC and control cell lines, CellTiter-Glo viability, 72 h; series mostly up to 46 µM
Records with an inconclusive call do not appear. Activity calls are given as the source filed them. Calls come from the whole dose curve; as a rule, active = well fitted inhibition curve with a large enough effect; inconclusive = small, poorly fitted or top-dose-only effect; inactive = flat fitted curve, though single readings scatter.
Outcome codes: active, inactive

compound	assigned label
COc1cc(O)c(C(=O)c2ccccc2)cc1S(=O)(=O)O	inactive
Cc1nc(-c2ccc(Cl)cc2)oc1COC(C)(C)C(=O)O	inactive
COP(=O)(OC)OC(c1ccc(Cl)cc1)P(=O)(OC)OC (stereo not drawn)	inactive
COc1ccc2c(c1)c1c3n2CCN(C)C3=NCC1	inactive
CC1=C(C(=O)O)N2C(=O)[C@@H](NC(=O)[C@H](N)c3ccccc3)[C@H]2SC1	inactive
N/C(=N\N=C\c1ccc(Cl)cc1)N/N=C/c1ccc(Cl)cc1	inactive
CN1CCN(c2c(F)cc3c(=O)c(C(=O)O)cn4c3c2SCC4)CC1	inactive
CC(CNC1CCCCC1)OC(=O)c1ccccc1 (stereo not drawn)	inactive
CCc1ccc(C(=O)C(C)CN2CCCCC2)cc1 (stereo not drawn)	inactive
CCCCC(CC)COC(=O)/C=C/c1ccc(OC)cc1 (stereo not drawn)	inactive
CCOc1cc(OCC)c(C(=O)CCC(=O)O)cc1OCC	inactive
CCO[C@@H]1O[C@H](C(COCc2ccccc2)OCc2ccccc2)[C@H](OCc2ccccc2)[C@H]1O (stereo partly drawn)	inactive
CCc1cc(Cl)c(OC)c(C(=O)NC[C@@H]2CCCN2CC)c1O	inactive
O=C(O)Cc1csc(-c2ccc(Cl)cc2)n1	inactive
COc1cc(C(=O)NCc2ccc(OCCN(C)C)cc2)cc(OC)c1OC	inactive
O=C1C(CCS(=O)c2ccccc2)C(=O)N(c2ccccc2)N1c1ccccc1 (stereo not drawn)	inactive
COc1cc(C(=O)N2CCCCCCC2)cc(OC)c1OC	inactive
CC(=O)NCCCCCC(=O)O	inactive
CCN1/C(=C/C=C/c2sc3ccccc3[n+]2CC)Sc2ccccc21	active
CC(C)Nc1cccnc1N1CCN(C(=O)c2cc3cc(NS(C)(=O)=O)ccc3[nH]2)CC1	inactive
NCCNC(=O)c1ccc(Cl)cn1	inactive
C[C@@]12C(=O)OC(=O)[C@]1(C)C1CCC2O1	active
C#C[C@]1(OC(C)=O)CC[C@H]2[C@@H]3CCC4=C/C(=N/O)CC[C@@H]4[C@H]3CC[C@@]21CC	inactive

----------
# Test system: KB-3-1
# assay info: Cytotoxic Profiling of Annotated Libraries Using Quantitative High-Throughput Screening (AID 1296008); note: % is set by controls: 0 for no effect and ±100 for the full control effect; nearly all actives have a fitted effect of over 60% in size
# run parameters: Five cell lines viability, CellTiter-Glo ATP luminescence, 48-72 h; active compounds read low
Inconclusive results are not listed. Active and inactive are the calls of the source. Calls follow the shape of the dose curve; as a rule, active = well fitted inhibition curve with a large enough effect; inconclusive = small, poorly fitted or top-dose-only effect; inactive = flat fitted curve, though single readings scatter.
Listing of recorded max response by entry.
property name: max response

input smiles	endpoint result
O=C(O)CCC(=O)Nc1ccc(S(=O)(=O)Nc2nccs2)cc1	14.8% (inactive)
NC(=O)n1c(O)c(C(=O)c2cccs2)c2cc(Cl)ccc21	2.04% (inactive)
O=C(O)C1(C(=O)O)CCC1.[NH2-].[NH2-].[Pt+2]	13% (inactive)
Cc1ncc(CO)c(C=O)c1O	3.7% (inactive)
c1ccc(-c2nc[nH]c2-c2ccccc2)cc1	23.6% (inactive)
COc1cc(NS(=O)(=O)c2ccc(N)cc2)ncn1	-8.34% (inactive)
c1ccc(CC2=NCCN2)cc1	-6.13% (inactive)
CCCCCCCCCCC[C@@H](C[C@@H]1OC(=O)[C@H]1CCCCCC)OC(=O)[C@H](CC(C)C)NC=O	-9.82% (inactive)
NS(=O)(=O)c1cc(C(=O)O)cc(N2CCCC2)c1Oc1ccccc1	3.66% (inactive)
CN(CCCN1c2ccccc2CCc2ccccc21)CC(=O)c1ccc(Cl)cc1	3.26% (inactive)
CCc1oc2ccccc2c1C(=O)c1cc(I)c(O)c(I)c1	-18.7% (inactive)
O=C(O)c1ccc(S(=O)(=O)N(Cl)Cl)cc1	-9.69% (inactive)

----------
# System: HB3
# assay info: qHTS profiling for inhibitors of Plasmodium falciparum proliferation (AID 504749); note: nearly all actives have a fitted effect of over 60% in size
# run parameters: P. falciparum in erythrocytes, SYBR Green DNA, 72 h; series mostly up to 28.7 µM
Inconclusive results are not listed. Calls of active or inactive are those of the source. Calls follow the shape of the dose curve; as a rule, active = well fitted inhibition curve with a large enough effect; inconclusive = small, poorly fitted or top-dose-only effect; inactive = flat fitted curve, though single readings scatter.
Outcome codes: label 1 = active, label 0 = inactive

molecule	assigned label
COc1cc(C)nc(-n2nc(C)cc2OC)n1	label 0
Nc1nc(N)c(-c2ccccc2)s1	label 0
CCN(CC)CCOc1ccc2c(c1)C(=O)c1cc(OCCN(CC)CC)ccc1-2	label 1
O=C1C(CCS(=O)c2ccccc2)C(=O)N(c2ccccc2)N1c1ccccc1 (stereo unspecified)	label 0
CCCCCCCCOc1ccc(C(=O)c2ccccc2)c(O)c1	label 0
O=C(O)CCNC(=O)c1ccccc1	label 0

----------
# Test system: ATS189
# assay info: qHTS profiling for inhibitors of Plasmodium falciparum proliferation (AID 504749); note: nearly all actives have a fitted effect of over 60% in size
# run parameters: P. falciparum in erythrocytes, SYBR Green DNA, 72 h; series mostly up to 28.7 µM
Records with an inconclusive call do not appear. Calls of active or inactive are those of the source. Calls follow the shape of the dose curve; as a rule, active = well fitted inhibition curve with a large enough effect; inconclusive = small, poorly fitted or top-dose-only effect; inactive = flat fitted curve, though single readings scatter.
Outcome codes: 1 = active, -1 = inactive

molecule	assigned label
CC(C)[N+](C)(C)CC(O)COc1cccc2ccccc12 (stereo not drawn)	-1
O[C@@H](c1cc(C(F)(F)F)nc2c(C(F)(F)F)cccc12)[C@H]1CCCCN1	1
Nc1ccc(S(=O)(=O)NCc2ccccc2)cc1	-1
OC[C@H]1O[C@@H]2O[C@H]3[C@H](O)[C@@H](O)[C@@H](O[C@H]4[C@H](O)[C@@H](O)[C@@H](O[C@H]5[C@H](O)[C@@H](O)[C@@H](O[C@H]6[C@H](O)[C@@H](O)[C@@H](O[C@H]7[C@H](O)[C@@H](O)[C@@H](O[C@H]8[C@H](O)[C@@H](O)[C@@H](O[C@H]1[C@H](O)[C@H]2O)O[C@@H]8CO)O[C@@H]7CO)O[C@@H]6CO)O[C@@H]5CO)O[C@@H]4CO)O[C@@H]3CO	-1
CC(=O)NC(=O)c1ccccc1O	-1
CCc1ccc(C(=O)C(C)CN2CCCCC2)cc1 (stereo not drawn)	-1
NC(N)=NCc1cccc(I)c1	-1
C#C[C@]1(O)CC[C@H]2[C@@H]3CCc4cc(OC)ccc4[C@H]3CC[C@@]21C	-1

----------
Listing of recorded activity change, negative = inhibition by entry.
# assay info: qHTS Assay for Lipid Storage Modulators (AID 1519); note: % is set by controls: 0 for no effect and ±100 for the full control effect
# run parameters: Drosophila S3 cells, BODIPY lipid droplet/cell ratio, laser cytometry; at 25.7 µM (top of the series); cells loaded with oleic acid
Results filed as inconclusive are left out.

input smiles	activity change, negative = inhibition / %
CCOC(=O)c1ccc(N)cc1	4.88
O=C(CCCN1CC=C(n2c(=O)[nH]c3ccccc32)CC1)c1ccc(F)cc1	1.32
CCCCc1cc2ccccc2c(OCCN(C)C)n1	-1.95
C[N+]1(C)CCC(=C(c2ccccc2)c2ccccc2)CC1	0.0072
CC(C)(C)NC[C@H](O)COc1nsnc1N1CCOCC1	-2.08
COc1cc(NS(=O)(=O)c2ccc(N)cc2)ncn1	1.08
N=C(N)N1CCc2ccccc2C1	-0.877
